The values you see were collected from PubChem BioAssay.

- Experiment notes: binders from COS7 lysate, DM2A8 probe, primary screen, torsin A project, cell lysate, small-molecule microarray, fluorescence 635/667 (AID 1065)
- Condition details: higher = more signal, COS7 lysate expressing mutant human TOR1A
Decision: composite z-score compared against 0.3; not below it gives condition met, below it gives condition not met.

Answered cases to consult:
{"Compound": "O=C1NC(=O)C2C1C=CC(C(O)c1ccc(F)cc1)N2Nc1ccccn1 (configuration not stated)", "Assigned category": "condition met"}
{"Compound": "CC(C)[C@@H](C(=O)O)n1cc(-c2ccccc2)nn1", "Assigned category": "condition met"}

Challenge: Quick check, composite z-score >= 0.3? CC(C)C[C@@H]1NC(=O)[C@@H]2C[C@H](C(=O)NCCCC[N+](C)(C)C)[C@H](c3ccc(O)cc3)N2C1=O
Response given: condition met

Challenge: COc1cc2c(cc1O)C(c1ccc(CN3CCCC3)cc1)N(Cc1ccc([N+](=O)[O-])o1)CC2 (configuration not stated) , same question.
Response given: condition not met

Challenge: CN1C(=O)[C@]2(CCS(=O)(=O)c3ccccc3)N=C(c3ccc(OCCCO)cc3)O[C@@H]2c2ccccc21 , same question.
Response given: condition met

Challenge: CCOC(=O)C1=CCC(c2cc3ccccc3[nH]2)N(S(=O)(=O)c2ccccc2[N+](=O)[O-])C1 (configuration not stated) , same question.
Response given: condition not met

Challenge: CCOC(=O)C1=CC[C@@H](c2ccccc2Cl)N(S(=O)(=O)c2ccc(C)cc2)[C@H]1c1cccc(OC)c1 , same question.
Response given: condition not met

Challenge: CCOC(=O)C[C@H]1[C@H](OC(=O)c2ccc(C(=O)c3ccccc3)cc2)[C@@H](NC(=O)c2ccc3ccccc3c2)c2cc(OCCCO)ccc2N1C(=O)c1ccc2ccccc2n1 , same question.
Response given: condition met

Challenge: COC(=O)[C@@]1(Cc2ccccc2CN=[N+]=[N-])COC(c2ccc(OCCCO)cc2)=N1 , same question.
Response given: condition not met

Challenge: [N-]=[N+]=NCc1ccccc1C[C@@]1(C(=O)O)N=C(c2ccc(OCCCO)cc2)O[C@@H]1c1ccccc1CN=[N+]=[N-] , same question.
Response given: condition met

----------
- Experiment notes: fission yeast growth modulation, primary screen, strain 972, OD600, 24 h, no modulator (AID 1090);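 also: basal condition with compound alone and no growth modifier present; test concentration not given here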
- Condition details: S. pombe 972 growth, higher = more signal, called active from +8 up or from −8 down
Classify on z-score using group A = under -1, group B = from -1 up to 0.6, group C = 0.6 and over

Answered cases to consult:
{"Compound": "CC(C)CNC(=O)[C@@H]1c2ccccc2C(=O)N(C(C)C)[C@H]1c1ccc(CO)cc1", "Assigned category": "group B"}
{"Compound": "[N-]=[N+]=NCc1ccccc1C[C@]1(C(=O)N2CCCCC2)N=C(c2ccc(OCCCO)cc2)O[C@H]1c1ccccc1", "Assigned category": "group A"}
{"Compound": "C=CC[C@@]1(C(=O)N(C)C)N=C(c2ccc(OCCCO)cc2)O[C@@H]1c1ccccc1", "Assigned category": "group A"}
{"Compound": "C=CC[C@]1(C(=O)OC)N=C(c2ccc(OCCCO)cc2)O[C@H]1c1ccccc1N=[N+]=[N-]", "Assigned category": "group B"}

Challenge: Consider COC(=O)c1ccc([C@H](NC(=O)c2ccccc2)[C@]2(C)C[C@H]2C2CCCCC2)cc1 . To which z-score class does it belong?
Response given: group C

Challenge: CCOC(=O)C1=C[C@@H](C(C)(C)C)N(S(=O)(=O)c2ccc(C)cc2)[C@H]1c1ccccc1Cl , same question.
Response given: group C

Challenge: CCC[C@@H]1[C@@H](Sc2ccccc2)[C@@H](C(=O)O)[C@H](c2ccc(C)cc2)N1S(=O)(=O)c1ccc(C)cc1 , same question.
Response given: group C

Challenge: COc1cccc(OC)c1C(=O)O[C@H]1[C@@H]2OC(=O)[C@H](Cc3cccc(Br)c3)C/C=C/C[C@@H](Cc3cccc(Br)c3)C(=O)O[C@H]2[C@@H](OC)O[C@@H]1CO , same question.
Response given: group B

Challenge: CCCC[C@@H]1C[C@H]1[C@@H](NC(=O)c1ccc(C(F)(F)F)cc1)c1ccc(C(=O)OC)cc1 , same question.
Response given: group A

Challenge: COCCOC(=O)N1C(=O)[C@@]2(c3cc(C#CCC(C(=O)OC)C(=O)OC)ccc31)[C@H](C(=O)N1CCCCCCC1)[C@H]1C(=O)O[C@H](c3ccccc3)[C@H](c3ccccc3)N1[C@@H]2c1ccccc1OCCO , same question.
Response given: group A

Challenge: C=CC[C@]1(C(=O)NCc2ccccc2)COC(c2ccc(OCCCO)cc2)=N1 , same question.
Response given: group A

Challenge: COc1ccc(CCNC(=O)[C@@]2(Sc3ccc(C)cc3)CC(=O)N(C(C)C)[C@@H]2c2ccc(CO)cc2)cc1 , same question.
Response given: group B

Challenge: [N-]=[N+]=NCc1ccccc1C[C@@]1(C(=O)O)N=C(c2ccc(OCCCO)cc2)O[C@@H]1c1ccccc1CN=[N+]=[N-] , same question.
Response given: group A

Challenge: COc1ccc(NN2C(C(O)c3ccc(OC)cc3)C=CC3C(=O)N(C4CCCCC4)C(=O)C32)cc1 (centres undefined) , same question.
Response given: group C

Challenge: CC(C)C(=C=CC[C@@H](O)c1ccccc1OCCO)C[C@@H](O)c1cc(Cl)cc(Cl)c1O , same question.
Response given: group A

----------
- System name: Streptavidin (Streptomyces avidinii) (UniProt P22629)
- Sequence (P22629 whole entry, looked up): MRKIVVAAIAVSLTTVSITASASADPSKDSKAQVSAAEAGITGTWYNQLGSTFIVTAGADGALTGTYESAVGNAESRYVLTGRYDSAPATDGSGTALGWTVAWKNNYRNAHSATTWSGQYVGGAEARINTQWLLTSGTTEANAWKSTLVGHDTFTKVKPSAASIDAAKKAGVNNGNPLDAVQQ
- Experiment notes: streptavidin binders on small-molecule microarray, primary screen, artefact control for SMM compound annotation, biophysical, 635/667 nm fluorescence (AID 1147);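 also: signal reflects streptavidin binding to arrayed compounds as a control protein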
- Condition details: streptavidin binding, higher = more signal
Each record here notes measured composite z-score.
Reply with just the number.

Consider the reported composite z-score for these compounds:
{"Compound": "CC(C)C(=C=CC[C@@H](O)c1ccccc1OCCO)C[C@@H](O)c1cc(Cl)cc(Cl)c1O", "composite z-score": 1.05}
{"Compound": "CCCCN1CC=CC23O[C@@H]4/C=C\\CCC(C)OC(=O)C4[C@H]2C(=O)N(C(C)CO)[C@@H]3C1=O (stereo partly drawn)", "composite z-score": -0.447}

Would you kindly look at the next entry?
Challenge: Quick one: composite z-score of CCCCC(O)C1C=CC2C(=O)NC(=O)C2N1Nc1ccccn1 (stereo not drawn) ?
Response given: 0.0033

----------
- Experiment notes: small-molecule microarray binders of probe aEGFR, primary screen, biochemical, biotinylated probe, 635/667 nm fluorescence (AID 1097);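 also: probe is a biotinylated anti-EGFR antibody binding compounds printed on slides; score combines fluorescence near 667 nm and signal to noise of each spot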
- Condition details: higher = more signal
Decision: composite z-score compared against -0.08; not below it gives met, below it gives not met.

{"Compound": "COc1ccc([Si](C)(C)[C@H]2[C@H](CCO)O[C@@]3(C(=O)N(Cc4ccc(N5CCOC5=O)cc4)c4ccccc43)[C@@H]2C)cc1", "Assigned category": "not met"}
{"Compound": "Cc1ccc(F)cc1S(=O)(=O)N[C@@H]1CCN(Cc2ccc3c(c2)OCO3)C1", "Assigned category": "not met"}
{"Compound": "CCC(CC)C(O)C1C=CC2C(=O)N(C)C(=O)C2N1N1CCCCC1 (configuration not stated)", "Assigned category": "met"}
{"Compound": "COc1cc2c(cc1O)C(c1ccc(CN3CCCC3)cc1)N(Cc1ccc([N+](=O)[O-])o1)CC2 (configuration not stated)", "Assigned category": "not met"}
{"Compound": "CCN(CC)c1ccc(N2CC=CC34O[C@@H]5C=CCOC(=O)[C@@H]5[C@H]3C(=O)N(CCCO)[C@@H]4C2=O)cc1 (some centres not stated)", "Assigned category": "not met"}

Challenge: Quick check, composite z-score >= -0.08? CN(C)CCCC[C@@H]1NC(=O)[C@H]2C[C@@H](C(=O)NCc3ccc(F)cc3)[C@@H](c3ccc(O)cc3)N2C1=O
Response given: met

----------
Each record here notes measured composite z-score.
- System: Lefty1
- Experiment notes: Lefty1 binders on small-molecule microarrays, primary screen, biochemical, small-molecule microarray, 635/667 nm fluorescence (AID 1139)
- Condition details: small-molecule microarray binding, fluorescence 635/667; higher = more signal
Reply with just the number.

Consider the reported composite z-score for these molecules:
{"Molecule": "CCCCC(=C=CC[C@@H](O)c1cccc(OCCO)c1)CCO", "Measured number": 0.448}
{"Molecule": "C=CCC(OC(C)=O)[C@@H]1[C@@H](N(Cc2ccc(-c3cccc(C(F)(F)F)c3)o2)C(=O)Cc2ccc(F)cc2)c2cc(OCCCO)ccc2N1C(=O)c1ccc2ccccc2c1 (some centres undefined)", "Measured number": 0.479}
{"Molecule": "COCCCN1C(=O)[C@@]2(Cc3ccccc31)c1ccccc1C(=O)N(Cc1ccccc1OC)[C@H]2c1ccc(CO)cc1", "Measured number": -0.566}

Would you kindly look at the next entry?
Challenge: Quick one: composite z-score of COc1ccc([Si](C)(C)[C@@H]2[C@@H](CCO)O[C@]3(C(=O)N(Cc4ccccc4)c4ccc(N5C(=O)c6ccccc6Oc6ccccc65)cc43)[C@H]2C)cc1 ?
Response given: 0.172
